Test system: Staphylococcus epidermidis
Assay: Antibacterial activity against Staphylococcus epidermidis ATCC 12228 after 18 hrs
Format: functional
Conditions: ATCC 12228, 18 h
Could you please report measured MIC for the items listed next?
Record the value in µg/mL, omitting the unit from your answer.

Find the measured MIC: item COc1ccc(C(=O)CN2CCN(c3c(F)cc4c(=O)c(C(=O)O)cn5c4c3OC[C@@H]5C)CC2)cc1 , target or system Staphylococcus epidermidis.
0.25

Find the measured MIC: item C[C@H]1COc2c(N3CCNCC3)c(F)cc3c(=O)c(C(=O)O)cn1c23 , target or system Staphylococcus epidermidis.
1

Find the measured MIC: item COc1ccc(/C(CN2CCN(c3c(F)cc4c(=O)c(C(=O)O)cn5c4c3OC[C@@H]5C)CC2)=N/O)cc1 , target or system Staphylococcus epidermidis.
0.5

Find the measured MIC: item C[C@H]1COc2c(N3CCN(CC(=O)c4ccc(F)cc4)CC3)c(F)cc3c(=O)c(C(=O)O)cn1c23 , target or system Staphylococcus epidermidis.
0.5

Find the measured MIC: item C[C@H]1COc2c(N3CCN(C/C(=N\O)c4ccc(Br)cc4)CC3)c(F)cc3c(=O)c(C(=O)O)cn1c23 , target or system Staphylococcus epidermidis.
0.25

Find the measured MIC: item C[C@H]1COc2c(N3CCN(CC(=O)c4ccc(Br)cc4)CC3)c(F)cc3c(=O)c(C(=O)O)cn1c23 , target or system Staphylococcus epidermidis.
0.25

Find the measured MIC: item C[C@H]1COc2c(N3CCN(CC(=O)c4ccc(Cl)cc4)CC3)c(F)cc3c(=O)c(C(=O)O)cn1c23 , target or system Staphylococcus epidermidis.
0.25

Find the measured MIC: item C[C@H]1COc2c(N3CCN(C/C(=N\O)c4ccccc4)CC3)c(F)cc3c(=O)c(C(=O)O)cn1c23 , target or system Staphylococcus epidermidis.
0.5

Find the measured MIC: item C[C@H]1COc2c(N3CCN(CC(=O)c4ccc(Cl)cc4Cl)CC3)c(F)cc3c(=O)c(C(=O)O)cn1c23 , target or system Staphylococcus epidermidis.
1

Find the measured MIC: item Cc1ccc(/C(CN2CCN(c3c(F)cc4c(=O)c(C(=O)O)cn5c4c3OC[C@@H]5C)CC2)=N/O)cc1 , target or system Staphylococcus epidermidis.
0.5

Find the measured MIC: item C[C@H]1COc2c(N3CCN(CC(=O)c4ccccc4)CC3)c(F)cc3c(=O)c(C(=O)O)cn1c23 , target or system Staphylococcus epidermidis.
0.5

Find the measured MIC: item C[C@H]1COc2c(N3CCN(C)CC3)c(F)cc3c(=O)c(C(=O)O)cn1c23.C[C@H]1COc2c(N3CCN(C)CC3)c(F)cc3c(=O)c(C(=O)O)cn1c23.O , target or system Staphylococcus epidermidis.
0.25

Find the measured MIC: item C[C@H]1COc2c(N3CCN(C/C(=N\O)c4ccc(F)cc4)CC3)c(F)cc3c(=O)c(C(=O)O)cn1c23 , target or system Staphylococcus epidermidis.
0.5

Find the measured MIC: item Cc1ccc(C(=O)CN2CCN(c3c(F)cc4c(=O)c(C(=O)O)cn5c4c3OC[C@@H]5C)CC2)cc1 , target or system Staphylococcus epidermidis.
0.5

Find the measured MIC: item C[C@H]1COc2c(N3CCN(C/C(=N\O)c4ccc(Cl)cc4)CC3)c(F)cc3c(=O)c(C(=O)O)cn1c23 , target or system Staphylococcus epidermidis.
0.25

Find the measured MIC: item C[C@H]1COc2c(N3CCN(C/C(=N\O)c4ccc(Cl)cc4Cl)CC3)c(F)cc3c(=O)c(C(=O)O)cn1c23 , target or system Staphylococcus epidermidis.
0.5
